Would you mind telling me the reported growth sensitivity score of each entry?
system: S. cerevisiae AD1-9 (efflux-pump deficient), vegetative growth in YPD; assay: growth sensitivity score (doubling time z-score vs DMSO controls); higher = slower growth, strongly negative scores also mark growth inhibition (complete suppression), active = hit call of the paper
Structures can show the parent of a compound that is named as a salt.
Respond with the number and no other words.

# compound COc1cc(-c2ccc(=O)[nH]n2)ccc1OC(F)F [Zardaverine] (stock concentration (mM, diluted 1:100): 11.7) ; its growth sensitivity score = 2.67

Input Cc1cccc(C)c1NC(=O)C1CCCCN1C (stereo unspecified) [Mepivacaine hydrochloride] (stock concentration (mM, diluted 1:100): 10) . Output growth sensitivity score: -3.28

For record CN1CCCC(n2nc(Cc3ccc(Cl)cc3)c3ccccc3c2=O)CC1 (stereo unspecified) [Azelastine hydrochloride] (stock concentration (mM, diluted 1:100): 9.1) the listed growth sensitivity score is 11

The reported value for CC(C)OC(=O)CCC/C=C\C[C@@H]1[C@@H](CC[C@@H](O)CCc2ccccc2)[C@H](O)C[C@@H]1O [Latanoprost] (stock concentration (mM, diluted 1:100): 10.3) in terms of growth sensitivity score is 125

Sure, the documented growth sensitivity score for Cc1nc2n(c(=O)c1CCN1CCC(c3noc4cc(F)ccc34)CC1)CCCC2 [Risperidone] (stock concentration (mM, diluted 1:100): 10) is -2.71

growth sensitivity score reported for this compound O=C1c2cccc3c2[C@H](CCC3)CN1[C@@H]1CN2CCC1CC2 [Palonosetron hydrochloride] (stock concentration (mM, diluted 1:100): 10) : 2.17

growth sensitivity score measured on CO[C@H]1/C=C/O[C@@]2(C)Oc3c(C)c(O)c4c(c3C2=O)C2=NC3(CCN(CC(C)C)CC3)NC2=C(NC(=O)/C(C)=C\C=C\[C@H](C)[C@H](O)[C@@H](C)[C@@H](O)[C@@H](C)[C@H](OC(C)=O)[C@@H]1C)C4=O [Rifabutin] (stock concentration (mM, diluted 1:100): 10) = 1.43

The reported growth sensitivity score of the compound O=C(O)c1cc(/N=N/c2ccc(S(=O)(=O)Nc3ccccn3)cc2)ccc1O [Sulfasalazine] (stock concentration (mM, diluted 1:100): 10) was -2.95

Per the record, O=C1CC[C@@H](C(=O)N2CSC[C@H]2C(=O)O)N1 [Pidotimod] (stock concentration (mM, diluted 1:100): 10) has growth sensitivity score of 0.59

Entry CN(CCCN1c2ccccc2CCc2ccccc21)CC(=O)c1ccc(Cl)cc1 [Lofepramine] (stock concentration (mM, diluted 1:100): 10) ; growth sensitivity score = 51.9

For reference, reported growth sensitivity score for CSc1nc2cc(Cl)c(Oc3cccc(Cl)c3Cl)cc2[nH]1 [Triclabendazole] (stock concentration (mM, diluted 1:100): 10) stands at 74.8
